Can you tell me pIC50 for the items I'm about to list?
Biological target: CDK7/cyclin H (Homo sapiens, UniProt P50613)
Sequence (P50613 whole entry): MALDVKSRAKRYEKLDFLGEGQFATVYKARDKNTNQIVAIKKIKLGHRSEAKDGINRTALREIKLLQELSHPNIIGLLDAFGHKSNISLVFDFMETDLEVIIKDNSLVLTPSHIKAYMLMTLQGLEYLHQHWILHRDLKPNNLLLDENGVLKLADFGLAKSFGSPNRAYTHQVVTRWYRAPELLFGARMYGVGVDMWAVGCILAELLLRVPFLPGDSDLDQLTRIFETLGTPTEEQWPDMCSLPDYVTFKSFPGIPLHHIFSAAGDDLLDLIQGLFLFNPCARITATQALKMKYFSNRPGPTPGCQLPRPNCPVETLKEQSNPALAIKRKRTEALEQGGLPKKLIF
Sequence (P51946 whole entry partner): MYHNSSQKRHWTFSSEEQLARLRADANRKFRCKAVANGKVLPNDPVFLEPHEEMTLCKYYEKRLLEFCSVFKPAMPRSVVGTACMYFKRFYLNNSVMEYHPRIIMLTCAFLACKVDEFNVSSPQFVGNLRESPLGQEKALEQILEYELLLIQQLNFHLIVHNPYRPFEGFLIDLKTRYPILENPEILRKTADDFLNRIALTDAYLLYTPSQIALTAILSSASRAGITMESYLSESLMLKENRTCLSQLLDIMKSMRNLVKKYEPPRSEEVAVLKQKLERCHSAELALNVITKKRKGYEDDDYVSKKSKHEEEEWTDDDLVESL
Experiment: CDK 7 and 9 assay (CTD peptide substrate)
Details: in-house kinase assays; read-out: Average IC50 CDK7H
Keep in mind that pIC50 stands for -log10 of concentration in molar terms.

### Prompt // returns reported pIC50 for input CCNc1nc(C)c(-c2ccnc(Nc3ccc(CNC(C)=O)cc3)n2)s1 [Compound 9]
### Response 6.83

### Prompt If you can, please state the reported pIC50 value of CC[C@H](Nc1nc(NCc2cccnc2)c2ncn(C(C)C)c2n1)C(C)(C)O [Compound 6] .
### Response 5.88

### Prompt Fill blank: measured pIC50 of the compound CC[C@@H](Nc1nc(NCc2cccnc2)c2ncn(C(C)C)c2n1)C(C)(C)O [Compound 5] is ____.
### Response 4.57

### Prompt Entry under review: CCNc1nc(C)c(-c2ccnc(Nc3ccc(S(C)(=O)=O)cc3)n2)s1 [Compound 10] . Reported pIC50?
### Response 6.34

### Prompt Tell me the measured pIC50 of Cc1c(-c2ccnc(Nc3ccc(N4CCNCC4)cc3)n2)sc(=O)n1C [Compound 7] , please.
### Response 6.01

### Prompt Any idea what its pIC50 is? The compound is Cc1nc(N)sc1-c1ccnc(Nc2ccc(N3CCOCC3)cc2)n1 [Compound 11]
### Response 6.58

### Prompt Item under review: Cc1nc(C)c(-c2ccnc(Nc3ccc(N(C)C)cc3)n2)s1 [Compound 4] . Reported pIC50?
### Response 5.07

* * *

Test system: tumour cell panels
Test: In-house 72 hour cytotoxicity assays on tumour cell panels
Format: cell-based
Conditions: rounded IC50 value used for ease of calculation in PBMC assays; read-out: IC50 Used
pIC50: −log10 of the molar value.
# pIC50 >= 6 gives Y, anything below gives N

### Prompt Hi, just wondering whether Cc1nc(N)sc1-c1ccnc(Nc2ccc(N3CCOCC3)cc2)n1 [Compound 11] shows pIC50 of 6 or higher.
### Response Y

### Prompt Does the reported pIC50 for CCNc1nc(C)c(-c2ccnc(Nc3ccc(CNC(C)=O)cc3)n2)s1 [Compound 9] fall at or above the 6 mark?
### Response Y

### Prompt Please check the record CC[C@H](Nc1nc(NCc2cccnc2)c2ncn(C(C)C)c2n1)C(C)(C)O [Compound 6] and state if its pIC50 is at or above 6.
### Response N

### Prompt Determine whether this compound has pIC50 no lower than 6: Cc1c(-c2ccnc(Nc3ccc(N4CCNCC4)cc3)n2)sc(=O)n1C [Compound 7]
### Response N

### Prompt Entry CNc1nc(C)c(-c2ccnc(Nc3ccc(N4CCNCC4)cc3)n2)s1 [Compound 12] : is its pIC50 no less than 6?
### Response Y

* * *

Target: CDK9/cyclin T1 (Homo sapiens, UniProt P50750)
Sequence (P50750 whole entry): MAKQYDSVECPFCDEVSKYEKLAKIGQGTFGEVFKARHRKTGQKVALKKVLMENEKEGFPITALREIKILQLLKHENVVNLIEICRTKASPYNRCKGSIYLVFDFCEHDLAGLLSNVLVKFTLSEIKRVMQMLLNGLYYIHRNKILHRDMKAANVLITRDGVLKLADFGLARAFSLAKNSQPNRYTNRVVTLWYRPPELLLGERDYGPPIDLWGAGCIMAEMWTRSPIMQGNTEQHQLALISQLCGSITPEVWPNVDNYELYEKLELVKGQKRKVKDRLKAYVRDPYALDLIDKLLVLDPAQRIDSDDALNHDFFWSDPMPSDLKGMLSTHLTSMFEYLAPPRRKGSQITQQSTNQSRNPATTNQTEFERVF
Sequence (O60563 whole entry partner): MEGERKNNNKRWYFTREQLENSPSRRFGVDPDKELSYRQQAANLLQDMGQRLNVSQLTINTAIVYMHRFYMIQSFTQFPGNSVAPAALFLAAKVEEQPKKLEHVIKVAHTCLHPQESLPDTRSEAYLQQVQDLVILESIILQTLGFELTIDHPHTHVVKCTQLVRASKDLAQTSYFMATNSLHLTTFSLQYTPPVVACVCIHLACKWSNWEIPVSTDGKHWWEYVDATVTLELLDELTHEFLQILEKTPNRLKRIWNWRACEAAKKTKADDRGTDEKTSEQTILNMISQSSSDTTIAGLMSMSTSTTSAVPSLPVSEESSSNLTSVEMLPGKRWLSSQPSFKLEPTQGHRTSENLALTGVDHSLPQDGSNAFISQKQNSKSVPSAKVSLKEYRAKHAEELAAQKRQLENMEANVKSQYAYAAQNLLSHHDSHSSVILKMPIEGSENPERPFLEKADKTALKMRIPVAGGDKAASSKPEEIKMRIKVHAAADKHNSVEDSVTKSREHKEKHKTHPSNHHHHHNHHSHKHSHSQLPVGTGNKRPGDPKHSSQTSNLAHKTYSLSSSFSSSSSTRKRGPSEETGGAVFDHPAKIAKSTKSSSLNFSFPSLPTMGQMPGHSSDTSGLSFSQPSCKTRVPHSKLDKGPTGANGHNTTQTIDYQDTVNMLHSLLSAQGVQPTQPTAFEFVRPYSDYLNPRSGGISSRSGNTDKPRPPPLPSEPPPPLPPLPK
Assay: CDK 7 and 9 assay (CTD peptide substrate)
Settings: in-house kinase assays; read-out: Average IC50 CDK9T1
ATTRIBUTE_MEASURED: pIC50
// scale note: pIC50 = -log10(conc_M); give the bare number

### Prompt Item under review: CCNc1nc(C)c(-c2ccnc(Nc3ccc(S(C)(=O)=O)cc3)n2)s1 . Reported pIC50?
### Response 7.09

### Prompt Quick check: pIC50 of CCNc1nc(C)c(-c2ccnc(Nc3ccc(CNC(C)=O)cc3)n2)s1 ?
### Response 7.01

### Prompt Report pIC50 for CC[C@@H](Nc1nc(NCc2cccnc2)c2ncn(C(C)C)c2n1)C(C)(C)O please.
### Response 5.57

### Prompt Reported pIC50 for Cc1nc(C)c(-c2ccnc(Nc3ccc(N(C)C)cc3)n2)s1 : what is it?
### Response 5.73

### Prompt Reported pIC50, molecule CC[C@H](Nc1nc(NCc2cccnc2)c2ncn(C(C)C)c2n1)C(C)(C)O : ____
### Response 6.47

### Prompt For the molecule Cc1c(-c2ccnc(Nc3ccc(N4CCNCC4)cc3)n2)sc(=O)n1C , what pIC50 is on record?
### Response 6.71

* * *

System: tumour cell panels
Experiment: In-house 72 hour cytotoxicity assays on tumour cell panels
Type: cell-based
Conditions: rounded IC50 value used for ease of calculation in PBMC assays; read-out: IC50 Used
For each record, write down the corresponding IC50.
Write it as a number; the unit µM goes unstated.

### Prompt Entry under review: CC[C@@H](Nc1nc(NCc2cccnc2)c2ncn(C(C)C)c2n1)C(C)(C)O [Compound 5] . Reported IC50?
### Response 1.5

### Prompt Fill blank: measured IC50 of the compound CCNc1nc(C)c(-c2ccnc(Nc3ccc(S(C)(=O)=O)cc3)n2)s1 [Compound 10] is ____.
### Response 1

### Prompt I'd like to know its IC50. The compound in question is CC[C@H](Nc1nc(NCc2cccnc2)c2ncn(C(C)C)c2n1)[C@@H](C)O [Compound 8]
### Response 1

Where these numbers come from: patent US8809350B2
